Where these numbers come from: ChEMBL document CHEMBL1139385

UniProt Q28021: recorded Kd for assorted compounds
Sequence (Q28021 whole entry, looked up): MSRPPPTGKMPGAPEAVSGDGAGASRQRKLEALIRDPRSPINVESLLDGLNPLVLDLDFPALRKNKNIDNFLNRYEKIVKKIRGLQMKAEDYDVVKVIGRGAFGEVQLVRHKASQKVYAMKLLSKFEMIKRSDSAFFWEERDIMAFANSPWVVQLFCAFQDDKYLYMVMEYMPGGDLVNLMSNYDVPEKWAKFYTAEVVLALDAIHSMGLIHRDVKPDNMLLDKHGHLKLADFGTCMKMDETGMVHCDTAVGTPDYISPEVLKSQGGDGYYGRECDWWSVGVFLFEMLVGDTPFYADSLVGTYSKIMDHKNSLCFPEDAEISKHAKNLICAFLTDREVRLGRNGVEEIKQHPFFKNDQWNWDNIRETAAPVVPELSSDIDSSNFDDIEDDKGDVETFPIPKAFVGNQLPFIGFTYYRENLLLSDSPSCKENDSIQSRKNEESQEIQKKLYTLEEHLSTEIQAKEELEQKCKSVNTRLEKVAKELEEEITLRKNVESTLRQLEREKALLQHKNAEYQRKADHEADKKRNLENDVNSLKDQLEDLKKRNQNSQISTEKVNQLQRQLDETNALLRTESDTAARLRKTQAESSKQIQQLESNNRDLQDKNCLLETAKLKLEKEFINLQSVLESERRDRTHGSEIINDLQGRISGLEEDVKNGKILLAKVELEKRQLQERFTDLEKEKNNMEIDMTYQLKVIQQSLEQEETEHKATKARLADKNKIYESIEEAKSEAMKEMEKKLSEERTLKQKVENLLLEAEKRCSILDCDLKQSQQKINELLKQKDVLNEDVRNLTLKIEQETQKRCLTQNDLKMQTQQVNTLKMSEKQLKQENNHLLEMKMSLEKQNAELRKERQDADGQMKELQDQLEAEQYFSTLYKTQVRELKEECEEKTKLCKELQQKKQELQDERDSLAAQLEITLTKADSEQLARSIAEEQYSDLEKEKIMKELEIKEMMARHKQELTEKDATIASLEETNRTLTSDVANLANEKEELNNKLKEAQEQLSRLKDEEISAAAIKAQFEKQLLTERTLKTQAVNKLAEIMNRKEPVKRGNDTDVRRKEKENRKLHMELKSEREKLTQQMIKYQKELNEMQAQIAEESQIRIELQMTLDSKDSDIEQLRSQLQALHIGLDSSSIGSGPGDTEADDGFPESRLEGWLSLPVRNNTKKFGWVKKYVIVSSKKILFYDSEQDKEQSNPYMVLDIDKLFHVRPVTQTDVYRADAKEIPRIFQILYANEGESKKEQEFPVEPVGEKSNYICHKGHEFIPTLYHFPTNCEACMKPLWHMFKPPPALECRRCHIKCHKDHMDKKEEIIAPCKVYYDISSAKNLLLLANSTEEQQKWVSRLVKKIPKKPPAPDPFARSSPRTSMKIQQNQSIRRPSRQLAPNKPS
Give the value in nM but do not write nM after it.

Query block: Entry under review: "NC(=O)[C@@H](CCCN=C(N)N)NC(=O)CCCCCNC(=O)[C@H]1O[C@@H](n2cnc3c(N)ncnc32)[C@H](O)[C@@H]1O" . Reported Kd?
Result block: 89.7

Query block: Entry under review: "NC(=O)CCCCCNC(=O)[C@H]1O[C@@H](n2cnc3c(N)ncnc32)[C@H](O)[C@@H]1O" . Reported Kd?
Result block: 4480

----------
Please respond with reported Kd for every item in the list.
# TARGET_ENTITY: cAMP-dependent protein kinase catalytic subunit alpha (Homo sapiens, UniProt P17612)
# EXPERIMENT_NOTES: Binding affinity to PKA catalytic subunit alpha by fluorescence polarization assay
Give the value in nM but do not write nM after it.

Query block: Missing value: Kd, cAMP-dependent protein kinase catalytic subunit alpha (Homo sapiens, UniProt P17612), entry "NCCCNC(=O)CCCCCNC(=O)[C@H]1O[C@@H](n2cnc3c(N)ncnc32)[C@H](O)[C@@H]1O" . Fill in?
Result block: 6050

Query block: Missing value: Kd, cAMP-dependent protein kinase catalytic subunit alpha (Homo sapiens, UniProt P17612), entry "C[C@@H](NC(=O)CCCCCNC(=O)[C@H]1O[C@@H](n2cnc3c(N)ncnc32)[C@H](O)[C@@H]1O)C(=O)NCCCCCC(=O)N[C@H](CCCN=C(N)N)C(=O)N[C@H](CCCN=C(N)N)C(N)=O" . Fill in?
Result block: 5.8

Query block: Missing value: Kd, cAMP-dependent protein kinase catalytic subunit alpha (Homo sapiens, UniProt P17612), entry "NC(=O)[C@@H](CCCN=C(N)N)NC(=O)[C@@H](CCCN=C(N)N)NC(=O)CCCCCCCNC(=O)CCCCCNC(=O)[C@H]1O[C@@H](n2cnc3c(N)ncnc32)[C@H](O)[C@@H]1O" . Fill in?
Result block: 95.4
